Where do these numbers come from? They come from ChEMBL document CHEMBL3885861.

Provide the reported MCHC of each item.
# Species on record: Rattus norvegicus
# TEST: Open TG-GATES - Regimen: Single
# Format: toxicity, organism-based, Sprague-Dawley
# Parameters: regimen Single, gender Male, age 6 weeks
# CONDITION_CONTEXT: in vivo, po, 300 mg/kg, 24 h, tissue Blood, route gavage, dose level Middle
// note: answer is a bare numeric in %

Data request, read-out MCHC, for CNC(=C[N+](=O)[O-])NCCSCc1ccc(CN(C)C)o1 [RANITIDINE]
35

Please give the result for CN/C(=N/CCSCc1nc[nH]c1C)NC#N [CIMETIDINE] too.
33.3

Please give the result for Cc1nnc2n1-c1ccc(Cl)cc1C(c1ccccc1Cl)=NC2 [TRIAZOLAM] too.
33

Please give the result for COC(=O)C1=C(C)NC(C)=C(C(=O)OC)C1c1ccccc1[N+](=O)[O-] [NIFEDIPINE] too.
32.7

Please give the result for O=C(OC[C@H]1O[C@@H](OC(=O)c2cc(O)c(O)c(OC(=O)c3cc(O)c(O)c(O)c3)c2)[C@H](OC(=O)c2cc(O)c(O)c(OC(=O)c3cc(O)c(O)c(O)c3)c2)[C@@H](OC(=O)c2cc(O)c(O)c(OC(=O)c3cc(O)c(O)c(O)c3)c2)[C@@H]1OC(=O)c1cc(O)c(O)c(OC(=O)c2cc(O)c(O)c(O)c2)c1)c1cc(O)c(O)c(OC(=O)c2cc(O)c(O)c(O)c2)c1 [TANNIC ACID] too.
33.4

* * *

# Species: Rattus norvegicus
# TEST: Open TG-GATES - Regimen: Single
# Format: toxicity, organism-based, Sprague-Dawley
# Design: regimen Single, gender Male, age 6 weeks
# CONDITION_CONTEXT: in vivo, po, 1000 mg/kg, 3 h, route gavage, dose level High
OBSERVATION_TYPE: TERMINAL_BW (g)
// note: answer is a bare numeric in g

Data request, read-out TERMINAL_BW, for Cc1nnc2n1-c1ccc(Cl)cc1C(c1ccccc1Cl)=NC2
193.6

Please give the result for CNC(=C[N+](=O)[O-])NCCSCc1ccc(CN(C)C)o1 too.
218.6

Please give the result for CN/C(=N/CCSCc1nc[nH]c1C)NC#N too.
215.2

Please give the result for COC(=O)C1=C(C)NC(C)=C(C(=O)OC)C1c1ccccc1[N+](=O)[O-] too.
207.9

Please give the result for O=C(OC[C@H]1O[C@@H](OC(=O)c2cc(O)c(O)c(OC(=O)c3cc(O)c(O)c(O)c3)c2)[C@H](OC(=O)c2cc(O)c(O)c(OC(=O)c3cc(O)c(O)c(O)c3)c2)[C@@H](OC(=O)c2cc(O)c(O)c(OC(=O)c3cc(O)c(O)c(O)c3)c2)[C@@H]1OC(=O)c1cc(O)c(O)c(OC(=O)c2cc(O)c(O)c(O)c2)c1)c1cc(O)c(O)c(OC(=O)c2cc(O)c(O)c(O)c2)c1 too.
189.4

* * *

# Species on record: Rattus norvegicus
# TEST: Open TG-GATES - Regimen: Daily Repeat
# Type: toxicity, organism-based, Sprague-Dawley
# Parameters: regimen Daily Repeat, gender Male, age 6 weeks
# CONDITION_CONTEXT: in vivo, po, 100 mg/kg, 72 h, tissue Plasma, route gavage, dose level Low, time 3 day
OBSERVATION_TYPE: Cl (meq/L)
// note: answer is a bare numeric in meq/L

Data request, read-out Cl, for CCOc1ccc(NC(C)=O)cc1
105.8

Please give the result for Cc1nnc2n1-c1ccc(Cl)cc1C(c1ccccc1Cl)=NC2 too.
104.6

Please give the result for O=C(OC[C@H]1O[C@@H](OC(=O)c2cc(O)c(O)c(OC(=O)c3cc(O)c(O)c(O)c3)c2)[C@H](OC(=O)c2cc(O)c(O)c(OC(=O)c3cc(O)c(O)c(O)c3)c2)[C@@H](OC(=O)c2cc(O)c(O)c(OC(=O)c3cc(O)c(O)c(O)c3)c2)[C@@H]1OC(=O)c1cc(O)c(O)c(OC(=O)c2cc(O)c(O)c(O)c2)c1)c1cc(O)c(O)c(OC(=O)c2cc(O)c(O)c(O)c2)c1 too.
104.2

Please give the result for CN/C(=N/CCSCc1nc[nH]c1C)NC#N too.
103.2

Please give the result for CNC(=C[N+](=O)[O-])NCCSCc1ccc(CN(C)C)o1 too.
103.8

Please give the result for COC(=O)C1=C(C)NC(C)=C(C(=O)OC)C1c1ccccc1[N+](=O)[O-] too.
107

* * *

# Species: Rattus norvegicus
# TEST: Open TG-GATES - Regimen: Single
# Assay type: toxicity, organism-based, Sprague-Dawley
# Set-up: regimen Single, gender Male, age 6 weeks
# CONDITION_CONTEXT: in vivo, po, 1000 mg/kg, 24 h, tissue Blood, route gavage, dose level High
OBSERVATION_TYPE: MCV
Include the unit right after the number.

Data request, read-out MCV, for O=C(OC[C@H]1O[C@@H](OC(=O)c2cc(O)c(O)c(OC(=O)c3cc(O)c(O)c(O)c3)c2)[C@H](OC(=O)c2cc(O)c(O)c(OC(=O)c3cc(O)c(O)c(O)c3)c2)[C@@H](OC(=O)c2cc(O)c(O)c(OC(=O)c3cc(O)c(O)c(O)c3)c2)[C@@H]1OC(=O)c1cc(O)c(O)c(OC(=O)c2cc(O)c(O)c(O)c2)c1)c1cc(O)c(O)c(OC(=O)c2cc(O)c(O)c(O)c2)c1 [TANNIC ACID]
64.8 fL

Please give the result for Cc1nnc2n1-c1ccc(Cl)cc1C(c1ccccc1Cl)=NC2 [TRIAZOLAM] too.
62.2 fL

* * *

# Species: Rattus norvegicus
# TEST: Open TG-GATES - Regimen: Daily Repeat
# Assay type: toxicity, organism-based, Sprague-Dawley
# Parameters: regimen Daily Repeat, gender Male, age 6 weeks
# CONDITION_CONTEXT: in vivo, po, 0 mg/kg, […], tissue Plasma, route gavage, dose level Control, time 7 day
Provide the reported AST of each item.
Include the unit right after the number.

Data request, read-out AST, for CN1C(=O)CCS(=O)(=O)C1c1ccc(Cl)cc1 (stereo unspecified)
68.2 IU/L

Please give the result for CNC(=C[N+](=O)[O-])NCCSCc1ccc(CN(C)C)o1 too.
63.8 IU/L

Please give the result for Brc1ccccc1 too.
72.6 IU/L

Please give the result for CC(C)NNC(=O)c1ccncc1 too.
77.8 IU/L

Please give the result for CN/C(=N/CCSCc1nc[nH]c1C)NC#N too.
62.4 IU/L

Please give the result for Cc1nnc2n1-c1ccc(Cl)cc1C(c1ccccc1Cl)=NC2 too.
75 IU/L

* * *

# Organism: Rattus norvegicus
# TEST: Open TG-GATES - Regimen: Single
# Assay type: toxicity, organism-based, Sprague-Dawley
# Design: regimen Single, gender Male, age 6 weeks
# CONDITION_CONTEXT: in vivo, po, 300 mg/kg, 6 h, tissue Blood, route gavage, dose level Middle
Provide the reported RBC of each item.
// note: answer is a bare numeric in x10_4/ul

Data request, read-out RBC, for COC(=O)C1=C(C)NC(C)=C(C(=O)OC)C1c1ccccc1[N+](=O)[O-] [NIFEDIPINE]
632

Please give the result for Cc1nnc2n1-c1ccc(Cl)cc1C(c1ccccc1Cl)=NC2 [TRIAZOLAM] too.
674.2

Please give the result for O=C(OC[C@H]1O[C@@H](OC(=O)c2cc(O)c(O)c(OC(=O)c3cc(O)c(O)c(O)c3)c2)[C@H](OC(=O)c2cc(O)c(O)c(OC(=O)c3cc(O)c(O)c(O)c3)c2)[C@@H](OC(=O)c2cc(O)c(O)c(OC(=O)c3cc(O)c(O)c(O)c3)c2)[C@@H]1OC(=O)c1cc(O)c(O)c(OC(=O)c2cc(O)c(O)c(O)c2)c1)c1cc(O)c(O)c(OC(=O)c2cc(O)c(O)c(O)c2)c1 [TANNIC ACID] too.
591.4

Please give the result for CN/C(=N/CCSCc1nc[nH]c1C)NC#N [CIMETIDINE] too.
600.8

Please give the result for CNC(=C[N+](=O)[O-])NCCSCc1ccc(CN(C)C)o1 [RANITIDINE] too.
605

* * *

# Species on record: Rattus norvegicus
# TEST: Open TG-GATES - Regimen: Single
# Format: toxicity, organism-based, Sprague-Dawley
# Design: regimen Single, gender Male, age 6 weeks
# CONDITION_CONTEXT: in vivo, po, 300 mg/kg, 6 h, tissue Plasma, route gavage, dose level Middle
OBSERVATION_TYPE: Cl (meq/L)
// note: answer is a bare numeric in meq/L

Data request, read-out Cl, for COC(=O)C1=C(C)NC(C)=C(C(=O)OC)C1c1ccccc1[N+](=O)[O-]
97.6

Please give the result for Cc1nnc2n1-c1ccc(Cl)cc1C(c1ccccc1Cl)=NC2 too.
103

Please give the result for CNC(=C[N+](=O)[O-])NCCSCc1ccc(CN(C)C)o1 too.
103.6

Please give the result for CN/C(=N/CCSCc1nc[nH]c1C)NC#N too.
103.2

Please give the result for O=C(OC[C@H]1O[C@@H](OC(=O)c2cc(O)c(O)c(OC(=O)c3cc(O)c(O)c(O)c3)c2)[C@H](OC(=O)c2cc(O)c(O)c(OC(=O)c3cc(O)c(O)c(O)c3)c2)[C@@H](OC(=O)c2cc(O)c(O)c(OC(=O)c3cc(O)c(O)c(O)c3)c2)[C@@H]1OC(=O)c1cc(O)c(O)c(OC(=O)c2cc(O)c(O)c(O)c2)c1)c1cc(O)c(O)c(OC(=O)c2cc(O)c(O)c(O)c2)c1 too.
105.6
